test system: Mus musculus; assay: Induction of hypothermia in CD-1 mouse assessed as change in body temperature at 5 mg/kg, ip measured after 30 mins by thermometric method; assay type: functional, organism-based
Exercise: for every item that follows, state its recorded deltaT.
Answers are plain numbers, in °C.

For orientation, consider the following solved cases.
[[record]]
compound = "O=C1CC(c2c[nH]c3ccccc23)C(=O)N1CCCCN1CCC(c2c[nH]c3ccc(F)cc23)CC1 (configuration not stated)"
test_result = 0.3

[[record]]
compound = "COc1ccc2[nH]cc(C3CC(=O)N(CCCCN4CCC(c5c[nH]c6ccccc56)CC4)C3=O)c2c1 (configuration not stated)"
test_result = -0.2

[[record]]
compound = "O=C1CC(c2c[nH]c3ccc(F)cc23)C(=O)N1CCCCN1CCC(c2c[nH]c3ccccc23)CC1 (configuration not stated)"
test_result = -0.4

[[record]]
compound = "O=C1CC(c2c[nH]c3ccc(F)cc23)C(=O)N1CCCCN1CCC(c2c[nH]c3ccc(F)cc23)CC1 (configuration not stated)"
test_result = 0.4

[[record]]
compound = "COc1ccc2[nH]cc(C3CC(=O)N(CCCCN4CCC(c5c[nH]c6ccc(F)cc56)CC4)C3=O)c2c1 (configuration not stated)"
test_result = -0.1


Need deltaT for each of these compounds.
1. COc1ccc2[nH]cc(C3CCN(CCCCN4C(=O)CC(c5c[nH]c6ccc(OC)cc56)C4=O)CC3)c2c1 (configuration not stated)
2. COc1ccc2[nH]cc(C3CCN(CCCCN4C(=O)CC(c5c[nH]c6ccc(F)cc56)C4=O)CC3)c2c1 (configuration not stated)

1. 0.2
2. 0.4

These entries and their values trace back to ChEMBL document CHEMBL4311986.
